Reported Kp uu values for a set of compounds
- methodDescription: Brain penetration in non-tumor bearing mice
- Type: in vivo
- runParameters: mouse, brain and plasma, unbound ratio of drug in brain to plasma
testReadout: Kp uu

                                   compound  testreadout  measvalue
0  CN1CCN(CC2COc3cc4ncnc(Nc5cccc(Br)c5F)c4cc3O2)CC1 (racemic)        Kp uu       1.18
1  Fc1c(Br)cccc1Nc1ncnc2cc3c(cc12)O[C@@H](CN1CCNCC1)CO3 [JGK083S]        Kp uu      0.798
2  CN1CCN(C[C@H]2COc3cc4ncnc(Nc5cccc(Br)c5F)c4cc3O2)CC1 [JGK068S]        Kp uu       1.18
3  CN(C)CC1COc2cc3ncnc(Nc4cccc(Br)c4F)c3cc2O1 (racemic)        Kp uu       1.18
4  Fc1c(Br)cccc1Nc1ncnc2cc3c(cc12)OC(CN1CCOCC1)CO3 (racemic)        Kp uu      0.341
